inhibition: recorded values
- measured-on: Dihydroorotate dehydrogenase (Plasmodium falciparum)
- Sequence (whole entry): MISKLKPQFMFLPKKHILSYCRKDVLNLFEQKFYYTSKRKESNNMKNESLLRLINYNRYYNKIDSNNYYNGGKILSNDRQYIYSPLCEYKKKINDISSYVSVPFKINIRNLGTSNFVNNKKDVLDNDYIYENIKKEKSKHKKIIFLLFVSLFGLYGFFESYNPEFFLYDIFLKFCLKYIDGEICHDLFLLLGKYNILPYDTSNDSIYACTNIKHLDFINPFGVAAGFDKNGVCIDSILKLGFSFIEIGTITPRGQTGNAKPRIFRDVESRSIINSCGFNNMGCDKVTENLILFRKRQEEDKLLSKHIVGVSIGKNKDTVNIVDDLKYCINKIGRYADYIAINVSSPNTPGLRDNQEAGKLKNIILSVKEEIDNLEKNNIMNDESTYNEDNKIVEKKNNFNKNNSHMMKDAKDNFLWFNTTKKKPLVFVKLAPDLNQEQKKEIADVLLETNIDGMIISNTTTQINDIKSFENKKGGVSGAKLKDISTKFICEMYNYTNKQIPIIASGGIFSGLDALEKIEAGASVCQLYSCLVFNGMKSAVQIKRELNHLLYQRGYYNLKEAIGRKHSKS
- method-notes: Inhibition of Plasmodium falciparum DHODH at 50 uM
Give your result in % as a bare value.

structure: CCOC(=O)/C(C#N)=C\Nc1cccc(C(=O)O)c1
inhibition, %: 0

structure: CCOC(=O)/C(C#N)=C\Nc1ccc(Cl)c(C(=O)OCC)c1
inhibition, %: 24

structure: CCOC(=O)C(=CNc1ccc(Cl)c(C(=O)OCC)c1)C(=O)OCC
inhibition, %: 39

structure: CCOC(=O)c1ccc(NC=C2C(=O)OC(C)(C)OC2=O)cc1Cl
inhibition, %: 12

structure: CCOC(=O)/C(C#N)=C\Nc1ccc(C(=O)OCC)c(Cl)c1
inhibition, %: 66

For the molecule CCOC(=O)C(=CNc1cccc(C(=O)O)c1)C(=O)OCC , what inhibition is on record? 54

For the molecule CCOC(=O)C(=CNc1ccc(C(=O)O)cc1)C(=O)OCC , what inhibition is on record? 43

For the molecule CCOC(=O)C(=CNc1ccc(Cl)c(C(=O)O)c1)C(=O)OCC , what inhibition is on record? 37

For the molecule CCOC(=O)C(=CNc1cccc(C(=O)OCC)c1)C(=O)OCC , what inhibition is on record? 0

For the molecule CC1(C)OC(=O)C(=CNc2ccc(C(=O)O)cc2)C(=O)O1 , what inhibition is on record? 28

For the molecule CCOC(=O)c1ccc(NC=C2C(=O)OC(C)(C)OC2=O)cc1 , what inhibition is on record? 0

Taken from ChEMBL document CHEMBL1159041.
